System: Rat adult neural stem cell line ANSC-7 cells
procedure.details: Test Example 1: Proliferation promoting activity on neural stem cells (1), Hoechst 33342 nucleus staining fluorescence
Format: cell-based
measurement.setup: 0.32 μmol/L, 96 hours culture, nucleus-stain fluorescence, read-out: proliferation promoting activity (relative value, negative control = 100%)

[
  {
    "compound": "C=C(CCC1(C)OC2OC3CC1C21CCC2C4(C)CCC(O)CC4CCC2(O)C31)C(C)C (stereo not shown)",
    "assayed.system": "Rat adult neural stem cell line ANSC-7 cells",
    "activity at 0.32 µM": "≥ 160%"
  },
  {
    "compound": "C=C(CCC1(C)OC2OC3CC1C21CCC2C4(C)CCC(OC(C)=O)CC4CC4OC42C31)C(C)C (stereo not shown)",
    "assayed.system": "Rat adult neural stem cell line ANSC-7 cells",
    "activity at 0.32 µM": "≥ 160%"
  },
  {
    "compound": "C=C(CCC1(C)OC2OC3CC1C21CCC2C4(C)CCC(=O)CC4CC4OC42C31)C(C)C (stereo not shown)",
    "assayed.system": "Rat adult neural stem cell line ANSC-7 cells",
    "activity at 0.32 µM": "≥ 160%"
  },
  {
    "compound": "C=C(CCC(C)C1CCC2C3=C(CCC21C)C1(C)CCC(O)CC1C(=O)O3)C(C)C (stereo not shown)",
    "assayed.system": "Rat adult neural stem cell line ANSC-7 cells",
    "activity at 0.32 µM": "≥ 150%"
  },
  {
    "compound": "C=C(CCC(C)(O)C1CCC2C3=CCC4CC(O)CCC4(C)C3CCC21C)C(C)C (stereo not shown)",
    "assayed.system": "Rat adult neural stem cell line ANSC-7 cells",
    "activity at 0.32 µM": "≥ 150%"
  },
  {
    "compound": "CC(C)C(C)CCC1(C)OC2OC3CC1C21CCC2C4(C)CCC(O)CC4CC4OC42C31 (stereo not shown)",
    "assayed.system": "Rat adult neural stem cell line ANSC-7 cells",
    "activity at 0.32 µM": "≥ 160%"
  },
  {
    "compound": "C=C(CCC1(C)OC2OC3CC1C21CCC2C4(C)CCC(O)CC4CC4OC42C31)C(C)C (stereo not shown)",
    "assayed.system": "Rat adult neural stem cell line ANSC-7 cells",
    "activity at 0.32 µM": "≥ 150%"
  }
]
